Target: GABAA receptor α3 subtype with β2 and γ2 subunits (Homo sapiens, UniProt P18507+P34903)
Construct: expressed in transfected cells; host or cells: HEKT cell line, transient transfection with Fugene 6
Assay: Competition binding assay with [3H]flunitrazepam
Conditions: [3H]flunitrazepam, α3β2γ2, HEKT cells; read-out: GABAA RECEPTOR BINDING α3
Counter-ions that a name gives are not always drawn.
quantity-name: Ki (nM)

compound	tested-system	unit-descriptor	Ki
CCCOc1cc2c(cn1)[nH]c1ccncc12 [Compound 2, hydrochloride]	GABAA receptor α3 subtype with β2 and γ2 subunits (Homo sapiens, UniProt P18507+P34903)	nM	4.04
CC(C)(C)OC(=O)c1cc2c(cn1)[nH]c1cnccc12 [Compound 3]	GABAA receptor α3 subtype with β2 and γ2 subunits (Homo sapiens, UniProt P18507+P34903)	nM	3.4
